- Test Target: T1, recombinant CD3D&E protein (human CD3-his tag) (human, UniProt P04234 22-105; P07766 23-126, limits assumed)
- T1 construct: Analyte in Biacore; also called CD3D&E-His; CD3d&ε-His
- T1 sequence (P04234 22-105 limits assumed, chain 1 of 2): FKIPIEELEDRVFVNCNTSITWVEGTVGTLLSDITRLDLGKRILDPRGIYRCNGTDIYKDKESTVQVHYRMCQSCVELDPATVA
- T1 sequence (P07766 23-126 limits assumed, chain 2 of 2): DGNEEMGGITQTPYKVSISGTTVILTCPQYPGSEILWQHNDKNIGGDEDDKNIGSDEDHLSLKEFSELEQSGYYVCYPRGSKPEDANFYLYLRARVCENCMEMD
- Method Summary: SPR Biacore, Ab captured on Protein A;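 further: humanized antibodies on a Protein A chip, human CD3-his analyte flowed over in serial dilutions for 3 min, dissociation tracked 120–360 s on a Biacore T200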
Task for the reader: assign each of the following binders its reported kon.
Form entry: value (M⁻¹ s⁻¹) — number only.

Entry Hu153A6B1-13 (antibody, V domains shown, humanized mAb) VH: EVQLQESGPGLVKPSETLSLTCTVSGGSISSYNIHWIRQPPGKGLEWIGRIRYNGDTSYNSALKSRVTISVDTSKNQFSLKLSSVTAADTAVYYCARGPYGGSREPLFDYWGQGTMVTVSS VL: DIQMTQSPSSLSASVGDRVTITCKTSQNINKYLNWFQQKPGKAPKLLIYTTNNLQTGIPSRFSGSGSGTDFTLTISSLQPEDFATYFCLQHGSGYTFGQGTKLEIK needs its kon filled in; supply it.
349000

For the binder Hu153A6B1-11 (antibody, V domains shown, humanized mAb) VH: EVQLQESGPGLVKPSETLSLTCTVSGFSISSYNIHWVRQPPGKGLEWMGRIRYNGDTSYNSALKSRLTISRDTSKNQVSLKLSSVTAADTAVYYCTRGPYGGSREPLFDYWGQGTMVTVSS VL: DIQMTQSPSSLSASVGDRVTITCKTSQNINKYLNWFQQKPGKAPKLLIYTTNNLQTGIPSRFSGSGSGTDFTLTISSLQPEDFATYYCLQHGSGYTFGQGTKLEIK , report kon.
93000

Tell me measured kon for Hu153A6B1-1 (antibody, V domains shown, humanized mAb) VH: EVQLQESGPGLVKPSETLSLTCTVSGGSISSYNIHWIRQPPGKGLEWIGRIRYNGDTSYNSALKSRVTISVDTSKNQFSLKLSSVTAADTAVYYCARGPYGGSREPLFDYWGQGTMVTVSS VL: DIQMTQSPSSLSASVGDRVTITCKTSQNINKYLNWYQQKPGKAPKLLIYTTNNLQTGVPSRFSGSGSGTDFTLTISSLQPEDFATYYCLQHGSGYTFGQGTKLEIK please.
444000

Report kon, nothing else, for this binder: Hu192A7B9-11 (antibody, V domains shown, humanized mAb) VH: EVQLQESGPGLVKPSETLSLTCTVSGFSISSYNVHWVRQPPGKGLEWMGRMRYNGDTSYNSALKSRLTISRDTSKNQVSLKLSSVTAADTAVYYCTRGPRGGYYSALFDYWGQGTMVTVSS VL: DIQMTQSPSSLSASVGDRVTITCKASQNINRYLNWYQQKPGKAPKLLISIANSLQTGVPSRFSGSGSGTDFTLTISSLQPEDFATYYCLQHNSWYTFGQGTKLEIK
57800

For the binder Hu155A9B1-9 (antibody, V domains shown, humanized mAb) VH: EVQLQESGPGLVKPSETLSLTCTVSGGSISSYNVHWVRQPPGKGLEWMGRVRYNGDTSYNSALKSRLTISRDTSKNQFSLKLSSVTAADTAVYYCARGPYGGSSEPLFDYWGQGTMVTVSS VL: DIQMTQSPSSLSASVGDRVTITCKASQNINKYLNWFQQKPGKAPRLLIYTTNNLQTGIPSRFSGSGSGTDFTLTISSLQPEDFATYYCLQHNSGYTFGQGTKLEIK , report kon.
282000

Tell us which kon value is on record for Hu153A6B1-7 (antibody, V domains shown, humanized mAb) VH: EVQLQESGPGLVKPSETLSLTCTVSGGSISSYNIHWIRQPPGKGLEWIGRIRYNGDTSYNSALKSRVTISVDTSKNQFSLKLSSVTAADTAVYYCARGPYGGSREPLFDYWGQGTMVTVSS VL: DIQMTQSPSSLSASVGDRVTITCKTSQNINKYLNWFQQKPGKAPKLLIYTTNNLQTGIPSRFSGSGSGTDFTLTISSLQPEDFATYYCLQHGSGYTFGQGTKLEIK
314000

Let me know recorded kon for Hu155A9B1-18 (antibody, V domains shown, humanized mAb) VH: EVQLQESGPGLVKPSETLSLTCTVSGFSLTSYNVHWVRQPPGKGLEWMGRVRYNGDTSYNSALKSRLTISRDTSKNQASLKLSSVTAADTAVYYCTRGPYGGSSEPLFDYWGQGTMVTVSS VL: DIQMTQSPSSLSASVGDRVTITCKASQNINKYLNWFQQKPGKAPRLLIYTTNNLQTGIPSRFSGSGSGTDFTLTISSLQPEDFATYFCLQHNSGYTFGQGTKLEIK , thanks.
56600

Identify the reported kon for the following entry. 192A7B9 chimeric mAb (antibody, V domains shown, Chimeric mAb) VH: QVQLKESGPGLVQPSQTLSLNCTVSGFSLTSYNVHWVRQPPGKGLEWMGRMRYNGDTSYNSALKSRLSISRDTSKNQVFLKMNSLQTDDTGTYYCTRGPRGGYYSALFDYWGQGVMVTVSS VL: DIQMTQSPSFLSASVGDRVTINCKASQNINRYLNWYQQKLGDAPKVLISIANSLQTGIPSRFSGSGSGTDFTLTISSLQPEDVATYFCLQHNSWYTFGAGTKLELK
69700

Specify reported kon for the binder shown: Hu153A6B1-9 (antibody, V domains shown, humanized mAb) VH: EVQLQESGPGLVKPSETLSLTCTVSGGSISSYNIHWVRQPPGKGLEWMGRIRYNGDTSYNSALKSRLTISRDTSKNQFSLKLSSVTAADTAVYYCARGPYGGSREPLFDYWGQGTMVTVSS VL: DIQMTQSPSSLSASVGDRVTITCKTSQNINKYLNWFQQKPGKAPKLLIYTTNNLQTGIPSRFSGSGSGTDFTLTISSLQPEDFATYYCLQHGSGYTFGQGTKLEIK
558000

Return reported kon. Input binder: Hu153A6B1-2 (antibody, V domains shown, humanized mAb) VH: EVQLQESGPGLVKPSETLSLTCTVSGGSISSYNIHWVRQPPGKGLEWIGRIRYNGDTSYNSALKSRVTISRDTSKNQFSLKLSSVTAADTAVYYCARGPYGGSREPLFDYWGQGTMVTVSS VL: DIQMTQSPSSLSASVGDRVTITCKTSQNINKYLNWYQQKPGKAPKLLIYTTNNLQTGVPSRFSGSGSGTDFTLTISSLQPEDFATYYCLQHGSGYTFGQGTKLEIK
402000

Indicate its recorded kon; the binder in question is Hu153A6B1-18 (antibody, V domains shown, humanized mAb) VH: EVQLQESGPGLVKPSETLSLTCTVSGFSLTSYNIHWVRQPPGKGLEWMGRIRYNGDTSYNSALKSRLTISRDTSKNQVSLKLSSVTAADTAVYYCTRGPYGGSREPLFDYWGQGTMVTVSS VL: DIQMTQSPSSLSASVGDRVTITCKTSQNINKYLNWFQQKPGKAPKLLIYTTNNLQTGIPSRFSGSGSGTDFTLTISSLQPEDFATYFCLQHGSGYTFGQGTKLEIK
85400
